Assay: Acute toxicity in mice (oral)
Design: species or system mouse (ICR)
Conditions: in vivo, mouse, mortality during 14 days
observable: LD50 at 336 h (mg/kg)
Hi! Could you send only the number? It should be in mg/kg, unit omitted.

Exercise: Return LD50 at 336 h for the following molecule: CC(C)c1cccc2c1OC(C(C)C)C(=S)N2CC(=O)O (stereo not shown)
Key: 1880

* * *

Molecular target: aldose reductase from human placenta (Homo sapiens)
Construct: Partially purified aldose reductase from human placenta; from tissue; host or cells: human placenta
Test: Aldose reductase inhibition (in vitro study)
Type: biochemical
Settings: 10^-7 M
observable: inhibition at 0.1 µM (%)
Write the value in % as a bare number.

Exercise: Indicate the recorded inhibition at 0.1 µM value for this compound: CCc1cccc2c1OC(C(C)C)C(=S)N2CC(=O)O (centres unmarked) [Example 13]
Key: 14.9

Exercise: Fill in reported inhibition at 0.1 µM for this entry: CC(C)C1Oc2c(C3CCCCC3)cccc2N(CC(=O)O)C1=S (centres unmarked) [Example 20]
Key: 4.6

Exercise: Please give the documented inhibition at 0.1 µM of Cc1cccc2c1OC(C(C)C)C(=S)N2CC(=O)O (centres unmarked) [Example 6]
Key: 9.4

Exercise: Assign inhibition at 0.1 µM to the following record: CC(C)C1Oc2cc(F)ccc2N(CC(=O)O)C1=S (centres unmarked) [Example 17]
Key: 2.6

Exercise: Provide measured inhibition at 0.1 µM value, entry: CCOc1cccc2c1OC(C(C)C)C(=S)N2CC(=O)O (centres unmarked) [Example 12]
Key: 19.2

Exercise: Please give the documented inhibition at 0.1 µM of O=C(O)CN1C(=S)CSc2ccccc21 [Control B, reference compound]
Key: 15.7

Exercise: Quick one: give measured inhibition at 0.1 µM for O=C(O)CN1C(=S)COc2ccc(F)cc21 [Control A, reference compound]
Key: 25

Exercise: Consider the compound COc1cccc2c1OC(C(C)C)C(=S)N2CC(=O)O (centres unmarked) [Example 5] and give its recorded inhibition at 0.1 µM.
Key: 17.3

Exercise: Quick one: give measured inhibition at 0.1 µM for CC(C)C1Oc2ccc(F)cc2N(CC(=O)O)C1=S (centres unmarked) [Example 2]
Key: 8.7

Exercise: Could you please provide reported inhibition at 0.1 µM for COc1ccc2c(c1)OC(C(C)C)C(=S)N2CC(=O)O (centres unmarked) [Example 7] ? Thanks!
Key: 14.9

Exercise: // fetch inhibition at 0.1 µM given entry CC(C)C1Oc2ccccc2N(CC(=O)O)C1=S (centres unmarked) [Example 1]
Key: 19.1

Exercise: Supply reported inhibition at 0.1 µM belonging to this compound: CC(C)C1Oc2c(F)cccc2N(CC(=O)O)C1=S (centres unmarked) [Example 4]
Key: 3.8

Exercise: Tell me measured inhibition at 0.1 µM for CC(C)c1cccc2c1OC(C(C)C)C(=S)N2CC(=O)O (centres unmarked) [Example 8] please.
Key: 9.1

Exercise: Please give the documented inhibition at 0.1 µM of CC(C)C1Oc2c(Cl)cccc2N(CC(=O)O)C1=S (centres unmarked) [Example 3]
Key: 8.9
